From: the supplement of paper PMC7125110

// reported self-cleavage kobs at 160 uM GlcN6P for each item listed
B1: glmS ribozyme (parent)
chain: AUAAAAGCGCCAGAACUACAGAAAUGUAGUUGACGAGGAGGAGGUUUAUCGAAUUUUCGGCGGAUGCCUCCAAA

Variants of: B1
Assay: self-cleavage kobs at 160 uM GlcN6P; higher = faster cleavage; RNA array
Conditions: with glucosamine-6-phosphate
Fewer inactive variants are shown than the library holds.
reportedEndpoint: self-cleavage kobs at 160 uM GlcN6P

[[record]]
variantnotation = "G13A U54A"
result = "5.51e-05 s⁻¹"

[[record]]
variantnotation = "C11G U69G"
result = "0.000125 s⁻¹"

[[record]]
variantnotation = "U31A C67A"
result = "0.000473 s⁻¹"

[[record]]
variantnotation = "A15U U55C"
result = "0.00039 s⁻¹"

[[record]]
variantnotation = "G35U G60U"
result = "< 1e-05 s⁻¹"

[[record]]
variantnotation = "C10G G41C G63U"
result = "< 1e-05 s⁻¹"

[[record]]
variantnotation = "A15G C71G"
result = "0.000256 s⁻¹"

[[record]]
variantnotation = "G29A C34A"
result = "< 1e-05 s⁻¹"

[[record]]
variantnotation = "C10U C11G G43C G59A"
result = "< 1e-05 s⁻¹"

[[record]]
variantnotation = "G66A C68G"
result = "3.51e-05 s⁻¹"

[[record]]
variantnotation = "A39C G60C"
result = "< 1e-05 s⁻¹"

[[record]]
variantnotation = "C58G C70A"
result = "0.000411 s⁻¹"

[[record]]
variantnotation = "G41A U69C"
result = "< 1e-05 s⁻¹"

[[record]]
variantnotation = "A39C U46C"
result = "0.000168 s⁻¹"

[[record]]
variantnotation = "G35A A36U U55A"
result = "< 1e-05 s⁻¹"

[[record]]
variantnotation = "A14G U30A"
result = "0.00098 s⁻¹"

[[record]]
variantnotation = "C10U G60U C67U"
result = "< 1e-05 s⁻¹"

[[record]]
variantnotation = "A15C G32A U55A"
result = "7.61e-05 s⁻¹"

[[record]]
variantnotation = "G59U U65A C67U"
result = "< 1e-05 s⁻¹"

[[record]]
variantnotation = "C11G A15G U65C"
result = "< 1e-05 s⁻¹"

[[record]]
variantnotation = "U56A U69A"
result = "5e-05 s⁻¹"

[[record]]
variantnotation = "C8G G43C"
result = "< 1e-05 s⁻¹"

[[record]]
variantnotation = "A15G C71A"
result = "0.00102 s⁻¹"

[[record]]
variantnotation = "C34G C67A"
result = "< 1e-05 s⁻¹"

[[record]]
variantnotation = "C8G C11G G43A"
result = "< 1e-05 s⁻¹"

[[record]]
variantnotation = "A6U C11U"
result = "< 1e-05 s⁻¹"

[[record]]
variantnotation = "A6G U57G"
result = "< 1e-05 s⁻¹"

[[record]]
variantnotation = "C16U G29C"
result = "0.000622 s⁻¹"

[[record]]
variantnotation = "G44C U65G"
result = "< 1e-05 s⁻¹"

[[record]]
variantnotation = "G7U C34A U65G"
result = "< 1e-05 s⁻¹"

[[record]]
variantnotation = "G32U A52U"
result = "< 1e-05 s⁻¹"

[[record]]
variantnotation = "U31A"
result = "0.00127 s⁻¹"

[[record]]
variantnotation = "A12U U45G"
result = "0.00127 s⁻¹"

[[record]]
variantnotation = "U30A U31A"
result = "0.00152 s⁻¹"

[[record]]
variantnotation = "A12G A53G"
result = "5.44e-05 s⁻¹"

[[record]]
variantnotation = "G7U C11G"
result = "< 1e-05 s⁻¹"

[[record]]
variantnotation = "C11U A64U"
result = "< 1e-05 s⁻¹"

[[record]]
variantnotation = "G7U G35C"
result = "< 1e-05 s⁻¹"

[[record]]
variantnotation = "G35A U47C"
result = "< 1e-05 s⁻¹"

[[record]]
variantnotation = "A12C C70U"
result = "0.00111 s⁻¹"

[[record]]
variantnotation = "G40C A64C"
result = "< 1e-05 s⁻¹"

[[record]]
variantnotation = "C34A C68U"
result = "< 1e-05 s⁻¹"

[[record]]
variantnotation = "A52U G59A"
result = "< 1e-05 s⁻¹"

[[record]]
variantnotation = "U30A U55G"
result = "0.000286 s⁻¹"

[[record]]
variantnotation = "A12U U57G"
result = "4.4e-05 s⁻¹"

